permeability by entry:
Test system: MDCK
Test: Permeability across basolateral to apical side MDR1-expressing MDCK cells
Format: ADME, cell-based, Canis lupus familiaris
Conditions: dog
Unit ×10⁻⁶ cm/s implied. Number only.

Would you please look over these solved cases?
INSERT INTO assay_data (compound_structure, unit_tag, measured_value) VALUES
  ('COc1ccc(-c2csc(Nc3ccc4ccccc4n3)n2)cc1OC', '×10⁻⁶ cm/s', 8.9),
  ('Cc1ccc(Nc2nc(-c3ccncc3)cs2)nc1', '×10⁻⁶ cm/s', 42.3),
  ('COc1ccc(-c2csc(Nc3ccc(C(F)(F)F)cn3)n2)cc1OC', '×10⁻⁶ cm/s', 8.7),
  ('Cc1ccc(Nc2nc(-c3c(-c4ccccc4)noc3C)cs2)nc1', '×10⁻⁶ cm/s', 8.6);

The record that follows has no permeability shown yet.
The reported permeability of the compound Cc1ccc(Nc2nc(-c3cc(-c4ccccc4)no3)cs2)nc1 was 8.3

###

Each entry below carries its reported pEC50.
Experiment: Antiprion activity against PrPsc infected in dividing mouse ScN2a-cl3 cells assessed as reduction in prion load after 5 days by ELISA
Type: cell-based
Details: N2a-cl3, 120 h
As a rule, pEC50 stands for the negative log10 of the concentration, concentration in M.

Consider the following illustrative entries.
INSERT INTO results (compound_structure, property_label, measured_value) VALUES
  ('COc1ccc(-c2csc(Nc3ccc4ccccc4n3)n2)cc1OC', 'pEC50', 6.37),
  ('c1ccc2cc(Nc3nc(-c4ccncc4)cs3)ncc2c1', 'pEC50', 6.51);

// field: pEC50; key: COc1ccc(-c2csc(Nc3cc(C)ccn3)n2)cc1OC ; value = 6.00

// pEC50 lookup, molecule = COc1ccc(-c2csc(Nc3cnccn3)n2)cc1OC , result: 4.81

###

Tested on: MDCK
Experiment: Permeability across apical to basolateral side MDR1-expressing MDCK cells
Type: ADME, cell-based, Canis lupus familiaris
Settings: dog
Threshold-based label: permeability under 9 ×10⁻⁶ cm/s gives class 1, permeability not under 9 ×10⁻⁶ cm/s gives class 0.

INSERT INTO measurements (compound_structure, assigned_category) VALUES
  ('Cc1ccc(Nc2nc(-c3ccncc3)cs2)nc1', 'class 0'),
  ('COc1ccc(-c2csc(Nc3ccc(C(F)(F)F)cn3)n2)cc1OC', 'class 0'),
  ('Cc1ccc(Nc2nc(-c3cc(-c4ccccc4)no3)cs2)nc1', 'class 1');

*Q* Dear reviewer, please state whether Cc1ccc(Nc2nc(-c3c(-c4ccccc4)noc3C)cs2)nc1 has permeability strictly beneath 9 ×10⁻⁶ cm/s.
*A* class 0

###

log10 of t1/2 reference
Tested on: Liver microsomes
Experiment: Metabolic stability in rat liver microsomes assessed as half life by LC-MS/MS analysis
Assay type: ADME, Microsome
Scale: log10; quantity: t1/2; unit before log: min

INSERT INTO measurements (compound_structure, measured_value) VALUES
  ('Cc1ccc(Nc2nc(-c3ccncc3)cs2)nc1', 1.30),
  ('Cc1ccc(Nc2nc(-c3c(-c4ccccc4)noc3C)cs2)nc1', 1.28),
  ('Cc1ccc(Nc2nc(-c3cc(-c4ccccc4)no3)cs2)nc1', 2.18),
  ('COc1ccc(-c2csc(Nc3ccc4ccccc4n3)n2)cc1OC', 1.84),
  ('COc1ccc(Nc2nc(-c3ccc(OC)c(OC)c3)cs2)nc1', 1.65),
  ('COc1ccc(-c2csc(Nc3cc4ccccc4cn3)n2)cc1OC', 1.92);

The molecule COc1ccc(-c2csc(Nc3ccc(C(F)(F)F)cn3)n2)cc1OC , when measured on Liver microsomes, yielded log10 of t1/2 of 2.18

Reported Liver microsomes log10 of t1/2 for item Cc1ccc(Nc2nc(-c3ccccc3)cs2)nc1 was 1.00

Origin of values: ChEMBL document CHEMBL1671787
